remaining at 1 h, 0.315 mmol/L overview
Test: Plasma stability assay
Type: in vitro ADME, mouse
Details: mouse plasma, 37° C., 1 h; read-out: Intact peptide after 1 h in plasma

Examples with answers:
- COMPOUND: "COC(=O)[C@H](CC(C)C)NC(=O)[C@H](Cc1ccccc1)NC(=O)CNC(=O)CNC(=O)[C@H](Cc1ccc(O)cc1)NC(=O)Cc1ccccc1 [KK-81]"
  remaining at 1 h, 0.315 mmol/L: "88%"
- COMPOUND: "CC(C)C[C@H](NC(=O)[C@H](Cc1ccccc1)NC(=O)CNC(=O)CNC(=O)[C@@H](N)Cc1ccc(O)cc1)C(=O)O [Leu-ENK, YGGFL, reference compound]"
  remaining at 1 h, 0.315 mmol/L: "23%"
- COMPOUND: "CC(C)C[C@H](NC(=O)[C@H](Cc1ccccc1)NC(=O)CNC(=O)CNC(=O)[C@H](Cc1ccc(O)cc1)NC(=O)C(C)(C)C)C(=O)O [KK-103]"
  remaining at 1 h, 0.315 mmol/L: "93%"

Give the measured remaining at 1 h, 0.315 mmol/L of COC(=O)[C@H](CC(C)C)NC(=O)[C@H](Cc1ccccc1)NC(=O)CNC(=O)CNC(=O)[C@H](Cc1ccc(O)cc1)NC(=O)C1CCCCC1 [KK-112] .
62%

May I ask what remaining at 1 h, 0.315 mmol/L has been recorded for CCCCCC(=O)N[C@@H](Cc1ccc(O)cc1)C(=O)NCC(=O)NCC(=O)N[C@@H](Cc1ccccc1)C(=O)N[C@@H](CC(C)C)C(=O)OC [KK-93] ?
85%

Entry COC(=O)[C@H](CC(C)C)NC(=O)[C@H](Cc1ccccc1)NC(=O)CNC(=O)CNC(=O)[C@H](Cc1ccc(O)cc1)NC(=O)C(C)(C)C [KK-102] has what remaining at 1 h, 0.315 mmol/L?
93%
